# Test System: CIB1 and αIIb interaction (CIB1-GST : F-αIIb peptide) (Homo sapiens, UniProt Q99828)
# Construct: made in house; host or cells: BL-21 plus RIL cells (E. coli)
# Assay Comment: FP assay, 1536-well qHTS format (primary and confirmatory screen)
# Type: binding
# Test Parameters: qHTS primary screen hits, Table S2; read-out: IC50
Measured Endpoint: pIC50
// field semantics: pIC50 = negative decimal log of concentration (mol/L)

Please review the entries below; each comes with its answer.
COc1ccc2[nH]c([S+]([O-])Cc3ncc(C)c(OC)c3C)nc2c1 (stereo not shown)    4.97
O=C(Nc1nc(-c2ccccc2)cs1)c1ccccc1NS(=O)(=O)c1ccc(F)cc1.O=C(O)C(F)(F)F    4.75
N#Cc1cc2nc([O-])c([O-])nc2cc1[N+](=O)[O-].[Na+].[Na+]    4.45

Now consider a different compound.
// recorded pIC50 for `OCCN(CCO)c1nc(N2CCCCC2)c2nc(N(CCO)CCO)nc(N3CCCCC3)c2n1` : 4.90

---

// reported Curve Class (counterscreen) for each item listed
# Test System: GST-CIB1 : F-scrambled peptide (Homo sapiens)
# Construct: made in house; host or cells: BL-21 plus RIL cells (E. coli)
# Assay Comment: FP scrambled-peptide counter screen, 1536-well format
# Type: binding
# Test Parameters: Table S3, counterscreen, qHTS curve class; a negative sign marks inhibitory curves

COC(=O)c1ccc(O)c2ncc(-c3ccc(C(=O)NCCCN(C)C)cc3)cc12.O=C(O)C(F)(F)F [NCGC00189510-01]    3
CNc1oc(-c2c[nH]c3ccccc23)nc1C#N.O=C(O)C(F)(F)F [NCGC00262511-01]    -2.4
OC[C@H]1O[C@@H](Oc2ccc(O)c3cccc(O)c23)[C@H](O)[C@@H](O)[C@@H]1O [NCGC00385147-01]    -1.1
CN1CCc2ccc3c4c2[C@]1(C)Cc1cccc(c1-4)OCO3 [NCGC00168048-01]    -2.1
Nc1nc2c(s1)C(c1ccccc1C(F)(F)F)CC(=O)N2.O=C(O)C(F)(F)F (stereo not shown) [NCGC00488247-02]    -2.4
CO[C@@H]1C(N(C)C(=O)c2ccccc2)C[C@H]2O[C@]1(C)n1c3ccccc3c3c4c(c5c6ccccc6n2c5c31)C(=O)NC4=O (stereo partly shown) [NCGC00345083-01]    -1.1

response.value for NC(=O)c1cccc(-c2cnc3c(O)ccc(C(=O)O)c3c2)c1.O=C(O)C(F)(F)F [NCGC00241055-01] (field: Curve Class (counterscreen)) = -2.4

---

We begin with a simple list: items and their reported Curve Class.
# Test System: CIB1 and αIIb interaction (CIB1-GST : F-αIIb peptide) (Homo sapiens)
# Construct: made in house; host or cells: BL-21 plus RIL cells (E. coli)
# Sequence (Q99828 1-191): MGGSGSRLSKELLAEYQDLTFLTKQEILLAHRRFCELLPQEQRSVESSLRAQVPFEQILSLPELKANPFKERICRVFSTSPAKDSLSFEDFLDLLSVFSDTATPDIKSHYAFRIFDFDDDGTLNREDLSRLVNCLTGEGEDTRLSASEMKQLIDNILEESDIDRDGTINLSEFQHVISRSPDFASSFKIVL
# Assay Comment: FP assay, 1536-well qHTS format (primary and confirmatory screen)
# Type: binding
# Test Parameters: qHTS primary screen hits, Table S2; negative sign = inhibitory curve
Format: numeric value only, no unit, no commentary.

Some compounds with recorded Curve Class:
O=C(CN(c1cccc(Br)c1)S(=O)(=O)c1ccccc1)NN=CC1=CC(=[N+]([O-])O)C=CC1=O.O=C(O)C(F)(F)F    -2.2
CC(=O)c1c(O)c(C)c(O)c(Cc2c(O)c3c(c(C(=O)/C=C/c4ccccc4)c2O)OC(C)(C)C=C3)c1O    -1.2
O=C1c2ccccc2-c2n[nH]c3cccc1c23    -1.2

// CC1=C(C(=O)N(C)C)C(c2ccccc2Br)N=C(Nc2nc3ccccc3o2)N1.O=C(O)C(F)(F)F (centres unmarked) : Curve Class value = -2.4

Lookup result for `CN(N=O)c1cc(O)ccc1O` ; measured Curve Class: -2.2

The recorded Curve Class for entry `O=C(O)C(F)(F)F.O=C(c1ccc2c(c1)ncn2-c1ccc(C(F)(F)F)cc1)N1CCCCC1` equals -2.2

// Curve Class lookup, compound = `CN(Cc1cnc2nc(N)nc(N)c2n1)c1ccc(C(=O)N[C@@H](CCC(=O)O)C(=O)O)cc1` , result: -2.2

The recorded Curve Class for `COc1cccc2nc(-c3cccs3)nc(NN3C(=O)C=C(C)C3=O)c12` is -1.4

For record `CO/N=C(\C(=O)N[C@@H]1C(=O)N2C(C(=O)O)=C(Cn3nnc(C)n3)CS[C@H]12)c1csc(N)n1` the listed Curve Class is -3

Documented Curve Class of Cc1cnc(-c2ccccc2C(C)C)nc1NC(C)c1ccc(-c2cccnc2)cc1.O=C(O)C(F)(F)F (centres unmarked) : -2.4

Documented Curve Class of `Cc1ccc(S(=O)(=O)Nc2cc3c(cc2C(=O)Nc2nc(-c4ccccc4)cs2)OCO3)cc1.O=C(O)C(F)(F)F` : -2.2

# compound `CC(C)=CCOc1ccc(/C=C/C(=O)c2ccc(OCC=C(C)C)cc2OCC(=O)O)cc1` ; its Curve Class = -3

Recorded Curve Class (compound `Cc1ccc(C(=O)Nc2ccc(S(=O)(=O)O)c3cc(S(=O)(=O)O)cc(S(=O)(=O)O)c23)cc1NC(=O)c1cccc(NC(=O)Nc2cccc(C(=O)Nc3cc(C(=O)Nc4ccc(S(=O)(=O)O)c5cc(S(=O)(=O)O)cc(S(=O)(=O)O)c45)ccc3C)c2)c1` ): -1.4

Quick note, Curve Class for `Cc1ccc(Cl)c(Nc2ccccc2C(=O)O)c1Cl` landed at -2.2

---

Each entry below carries its reported Efficacy (%) (counterscreen).
# Test System: GST-CIB1 : F-scrambled peptide (Homo sapiens)
# Construct: made in house; host or cells: BL-21 plus RIL cells (E. coli)
# Assay Comment: FP scrambled-peptide counter screen, 1536-well format
# Format: binding
# Test Parameters: Table S3, counterscreen; negative = inhibition

CCC(C)Cn1c(O)cc2nn(-c3nc4ccccc4s3)c(=O)c-2c1C.O=C(O)C(F)(F)F (stereo not shown) [NCGC00386995-01]    -51%
CN(C)CCCCCCNC(=O)c1cccc(-c2cc(O)c3ncccc3c2)c1.O=C(O)C(F)(F)F [NCGC00247743-01]    -55%
O=C(O)c1cc(/N=N/c2ccc(S(=O)(=O)Nc3ccccn3)cc2)ccc1O [NCGC00090903-09]    -61%
CN(CC(=O)Nc1ccc(N2CCOCC2)cc1)Cc1c(O)ccc2ccccc12.O=C(O)C(F)(F)F [NCGC00229682-01]    -57%
CC[C@@H](c1ccc(F)c(F)c1)n1c(C(=O)OC)c(-c2ccno2)[nH]c1=S [NCGC00387465-01]    0%
CC(=O)c1c(O)cc2cccc3c2c1CC(C)(O)O3 (stereo not shown) [NCGC00381142-01]    -99%
CC(=O)Nc1sc2c(c1-c1nc3ccccc3s1)CNC2.O=C(O)C(F)(F)F [NCGC00185090-03]    -43%
COc1ccc(-n2ncc3c2CCCC3NC(=O)c2ccccc2Cl)cc1.O=C(O)C(F)(F)F (stereo not shown) [NCGC00273443-01]    0%

Query O=C(O)C(F)(F)F.O=C1CCCC2=C1C(c1ccn[nH]1)N=C(Nc1nc3ccccc3o1)N2 (stereo not shown) [NCGC00229725-01] yields Efficacy (%) (counterscreen) of -32%

Looking up COc1ccc2[nH]c([S+]([O-])Cc3ncc(C)c(OC)c3C)nc2c1 (stereo not shown) [NCGC00016925-10] , I see its Efficacy (%) (counterscreen) listed as -57%

response.value for O=C(Cc1ccccc1)NC(c1ccco1)c1cc(Cl)c2cccnc2c1O.O=C(O)C(F)(F)F (stereo not shown) [NCGC00188377-01] (field: Efficacy (%) (counterscreen)) = 61%

Entry O=C(O)C(F)(F)F.O=C(O)c1ccc(-c2ccc3ncnc(N4CCOCC4)c3c2)o1 [NCGC00229619-01] ; Efficacy (%) (counterscreen) = -53%

The compound listed as COc1ccc(CC(NC(C)=O)C(=O)O)cc1 (stereo not shown) [NCGC00384987-01] has a reported Efficacy (%) (counterscreen) of -105%

Consider CCOc1ccc(CCNC(=O)c2ccc(N3N=C(C)CC3=O)cc2)cc1OCC.O=C(O)C(F)(F)F [NCGC00241439-01] . Its measured Efficacy (%) (counterscreen) is -33%

The reported Efficacy (%) (counterscreen) of the compound O=C(O)C(F)(F)F.O=C1CCCC2=C1C(c1n[nH]cc1Cl)NC(Nc1nc3ccccc3o1)=N2 (stereo not shown) [NCGC00238624-04] was -54%

Looking up CC(O)C(=O)O.CCOc1ccc2nc3cc(N)ccc3c(N)c2c1.O [NCGC00096056-02] , I see its Efficacy (%) (counterscreen) listed as -204%
